What mass density was measured for each of the following?
- TEST CONDITIONS: 363.15 K; 100 kPa; Liquid; Vibrating tube method
Numbers only, in kg/m3.

[[record]]
molecule = "CCn1cc[n+](C)c1.N#C[B-](C#N)(C#N)C#N [1-ethyl-3-methylimidazolium tetracyanoborate]"
result_number = 987.5

[[record]]
molecule = "CCCC[N+]1(C)CCCC1.O=S(=O)([N-]S(=O)(=O)C(F)(F)F)C(F)(F)F"
result_number = 1338.7

[[record]]
molecule = "C=CCn1cc[n+](C)c1.O=S(=O)([N-]S(=O)(=O)C(F)(F)F)C(F)(F)F"
result_number = 1436.8


API: the following record is the query input.
Lab note: measured mass density of CCCCCCn1cc[n+](C)c1.N#C[B-](C#N)(C#N)C#N [1-hexyl-3-methylimidazolium tetracyanoborate] was 945.4
